meta.source: the supplement of paper PMC9170038

tested on: K4 kissing-loop RNA reporter; assay: apparent KD of K4 kissing-loop reporter; higher = weaker reporter binding; conditions: Eterna round: R107; input ligand: tryptophan 2.4 mM;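 note: bound reporter read as fluorescence of individual clusters on recovered sequencing chips by microscopy, with normalized cluster intensities fitted with a binding model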
Measured Property: apparent KD of K4 kissing-loop reporter
Express your answer as a number followed by its unit.

GCAGCACCGAGUGAUGUUUGGUUCAGCGUGAAGGAUAUAAUAUCUGUUAGAAGGUCAAGUGAGAUUGUCGCGAAUCAGUUUUGAU [theeternabot_exclusion_KL_FMN_A_41]	290 nM
UGAUACCAGACUGAUACCAGCCACAGAGUCAAAGACUCUGAAAAGGAAACCAGUGAUGUUGGCCCUUGGCAGCAGUCUGGUAUCU [TheoBX 15 #SwitchBubble #StaticStem]	164 nM
UGGUAUAGUGAUGUUAUACCACUACCAGAUACCAGUGUAACAUUACGCCCUUGGCAGCUGAUCAGGGAACAUAUGGAGACAUAUG [Theo A Mod astro A#6]	292 nM
GGCAGUGAUGUUGCCAGUGGCAGAUUAGAAGGAGCGUGGUGAGACACAGGUAGGUCGCUAAUUGAAAUUGCUGUCACUAAAAUGC [#6]	212 nM
AGCGAUGUUUUCUCUAAGAGUGAUGUUUUUCGAGGACCGGUACGGCCGCCACUCGAAUAAAGUGUGUGGUAGUGAGCUGUUGACA [#17 K4 Tryptophan A Exclusion]	804 nM

Let us examine a further case.
Query string: Fill in: apparent KD of K4 kissing-loop reporter of GAAGGAGACAACAUCACUACUCCUUCAGACUAGGAUAUCAGGAAACUGAGAAGGAGUCUACUUGCAGUGAUGUUGCAAGAAUAAU [[F]''-[K]'-[F]'-[F1]-[F2]-[K1]-[K2]_Design2] is ___
Result string: 118 nM
